Assay: siRNA / mRNA encapsulation rate of lipid nanoparticle (RiboGreen)
Assay type: physicochemical
Details: siRNA encapsulation rate of lipid nanoparticle
Observable: Encapsulation rate (%)

1) CC/C=C\CCC(CCCCCCC/C=C\CCCCCC)OC(=O)[C@@H](N)CCCCN (stereo partly drawn) [Comparative Example 8, (3Z,15Z)-docosa-3,15-dien-7-yl lysinate, reference compound] | 100
2) CCCCCCCC/C=C\CCCCCCCCC(CCCCCCC/C=C\CCCCCCCC)OC(=O)C(CC(=O)O)NC(=O)C(N)CCCCN (stereo not drawn) | 100
3) CCCCCCCC/C=C\CCCCCCCCC(CCCCCCC/C=C\CCCCCCCC)OC(=O)C(CCC(=O)O)NC(=N)N (stereo not drawn) [Comparative Example 3, reference compound] | 95
4) CCCCCCCC/C=C\CCCCCCCCC(CCCCCCC/C=C\CCCCCCCC)OC(=O)[C@@H](N)CCCCN (stereo partly drawn) [Comparative Example 4, reference compound] | 99
5) CCCCC/C=C\C/C=C\CCCCCCCCC(CCCCCCC/C=C\C/C=C\CCCCC)OC(=O)C(NC(=O)C(N)CCCNC(=N)N)C(C)O (stereo not drawn) | 98
6) CCCCCC/C=C\CCCCCCCCC(CCCCCCC/C=C\CCCCCC)OC(=O)C(N)CCCCN (stereo not drawn) [Comparative Example 6, reference compound] | 99

* * *

Test system: HEK293T cells
Experiment: Evaluation of protein expression effect (luciferase luminescence), Cell experiment 2
Assay type: cell-based
Conditions: lipid nanoparticle containing mRNA, 100 ng mRNA/20 μL per well, 24 hours, amount of luminescence as index
Observable: Protein expression level

1) CCCCCCCCCCCOC(=O)CCCCCN(CCO)CCCCCCCC(=O)OC(CCCCCCCC)CCCCCCCC [Reference Example 1, reference compound] | 320,000
2) CCCCCCCC/C=C\CCCCCCCCC(CCCCCCC/C=C\CCCCCCCC)OC(=O)C(CC(=O)O)NC(=O)C(N)CCCNC(=N)N (stereo not shown) | 100,000
3) CCCCCCCC/C=C\CCCCCCCCC(CCCCCCC/C=C\CCCCCCCC)OC(=O)C(CCC(=O)O)NC(=O)C(N)CCCNC(=N)N (stereo not shown) | 800,000
4) CCCCCCCC/C=C\CCCCCCCCC(CCCCCCC/C=C\CCCCCCCC)OC(=O)C(NC(=O)C(N)CCCNC(=N)N)C(C)O (stereo not shown) | 100,000

* * *

In this section we review reported Encapsulation rate (%) values for a set of compounds.
Test: siRNA / mRNA encapsulation rate of lipid nanoparticle (RiboGreen)
Type: physicochemical
Conditions: siRNA encapsulation rate of lipid nanoparticle
Observable: Encapsulation rate (%)

1) CCCCCCCC/C=C\CCCCCCCCC(CCCCCCC/C=C\CCCCCCCC)OC(=O)C(CCC(=O)O)NC(=O)C(N)Cc1c[nH]cn1 (stereo not drawn) | 84
2) CCCCCCCC/C=C\CCCCCCCCC(CCCCCCC/C=C\CCCCCCCC)OC(=O)[C@H](CCSC)NC(=O)[C@@H](N)CCCNC(=N)N (stereo partly drawn) | 100
3) CCCCCCCC/C=C\CCCCCCCCC(CCCCCCC/C=C\CCCCCCCC)OC(=O)C(NC(=O)C(N)CCCNC(=N)N)C(C)O (stereo not drawn) | 100
4) CCCCCCCC/C=C\CCCCCCCCC(CCCCCCC/C=C\CCCCCCCC)OC(=O)C(CC(=O)O)NC(=O)C(N)CCCNC(=N)N (stereo not drawn) | 99
5) CCCCCCCC/C=C\CCCCCCCCC(CCCCCCC/C=C\CCCCCCCC)OC(=O)C(CC(=O)O)NC(=N)N (stereo not drawn) [Comparative Example 2, reference compound] | 95
6) CC/C=C\CCC(CCCCCCCCCCC/C=C\CCCCCCCC)OC(=O)[C@@H](N)CCCCN (stereo partly drawn) [Comparative Example 9, reference compound] | 100

* * *

Experiment: siRNA / mRNA encapsulation rate of lipid nanoparticle (RiboGreen)
Format: physicochemical
Conditions: siRNA encapsulation rate of lipid nanoparticle
Observable: Encapsulation rate (%)

1. CCCCCCCC/C=C\CCCCCCCCC(CCCCCCC/C=C\CCCCCCCC)OC(=O)C(CO)NC(=O)C(N)CCCNC(=N)N (centres unmarked) | 100
2. CCCCCCCC/C=C\CCCCCCCCC(CCCCCCC/C=C\CCCCCCCC)OC(=O)C(CCC(=O)O)NC(=O)C(N)CCCNC(=N)N (centres unmarked) | 99
3. CCCCC/C=C\CCCC(CC/C=C\CCCCC)OC(=O)C(N)CCCCN (centres unmarked) [Comparative Example 5, (6Z,14Z)-icosa-6,14-dien-10-yl lysinate, reference compound] | 100
4. CCCCCCCC/C=C\CCCCCCCCC(CCCCCCC/C=C\CCCCCCCC)OC(=O)C(CCC(=O)O)NC(=O)C(N)CCCCN (centres unmarked) | 100
5. CCCCCCCC/C=C\CCCCCCCCCCCCC(CCCCCCCCCCC/C=C\CCCCCCCC)OC(=O)[C@@H](N)CCCCN (some centres unmarked) [Comparative Example 7, reference compound] | 99

* * *

Assay: Measurement of particle size, polydispersity index and zeta potential of lipid nanoparticle (Zetasizer)
Assay type: physicochemical
Conditions: lipid nanoparticle containing siRNA; pH 7.4 Tris-HCl
Sorting guide: entries reporting Zeta potential (mV) beneath 20 mV go in the Criterion met pile, the rest go in the Criterion not met pile.

1) CCCCCC/C=C\CCCCCCCCC(CCCCCCC/C=C\CCCCCC)OC(=O)C(N)CCCCN (stereo not drawn) [Comparative Example 6, reference compound] | Criterion not met
2) CCCCCCCC/C=C\CCCCCCCCC(CCCCCCC/C=C\CCCCCCCC)OC(=O)[C@H](CCSC)NC(=O)[C@@H](N)CCCNC(=N)N (stereo partly drawn) | Criterion not met
3) CCCCCCCC/C=C\CCCCCCCCCCCCC(CCCCCCCCCCC/C=C\CCCCCCCC)OC(=O)[C@@H](N)CCCCN (stereo partly drawn) [Comparative Example 7, reference compound] | Criterion not met
4) CCCCCCCC/C=C\CCCCCCCCC(CCCCCCC/C=C\CCCCCCCC)OC(=O)C(CC(=O)O)NC(=N)N (stereo not drawn) [Comparative Example 2, reference compound] | Criterion met
5) CC/C=C\CCC(CCCCCCCCCCC/C=C\CCCCCCCC)OC(=O)[C@@H](N)CCCCN (stereo partly drawn) [Comparative Example 9, reference compound] | Criterion not met
6) CCCCCCCC/C=C\CCCCCCCCC(CCCCCCC/C=C\CCCCCCCC)OC(=O)[C@@H](N)CCCCN (stereo partly drawn) [Comparative Example 4, reference compound] | Criterion not met
7) CCCCCCCC/C=C\CCCCCCCCC(CCCCCCC/C=C\CCCCCCCC)OC(=O)C(CCC(=O)O)NC(=O)C(N)Cc1c[nH]cn1 (stereo not drawn) | Criterion not met
8) CCCCCCCC/C=C\CCCCCCCCC(CCCCCCC/C=C\CCCCCCCC)OC(=O)C(CCC(=O)O)NC(=N)N (stereo not drawn) [Comparative Example 3, reference compound] | Criterion met
9) CCCCCCCC/C=C\CCCCCCCCC(CCCCCCC/C=C\CCCCCCCC)OC(=O)C(N)C(C)O (stereo not drawn) [Comparative Example 1, reference compound] | Criterion not met
10) CCCCCCCC/C=C\CCCCCCCCC(CCCCCCC/C=C\CCCCCCCC)OC(=O)C(CC(=O)O)NC(=O)C(N)CCCCN (stereo not drawn) | Criterion met
11) CC/C=C\CCC(CCCCCCC/C=C\CCCCCC)OC(=O)[C@@H](N)CCCCN (stereo partly drawn) [Comparative Example 8, (3Z,15Z)-docosa-3,15-dien-7-yl lysinate, reference compound] | Criterion not met
12) CCCCC/C=C\CCCC(CC/C=C\CCCCC)OC(=O)C(N)CCCCN (stereo not drawn) [Comparative Example 5, (6Z,14Z)-icosa-6,14-dien-10-yl lysinate, reference compound] | Criterion not met
13) CCCCC/C=C\C/C=C\CCCCCCCCC(CCCCCCC/C=C\C/C=C\CCCCC)OC(=O)C(NC(=O)C(N)CCCNC(=N)N)C(C)O (stereo not drawn) | Criterion not met
14) CCCCCCCC/C=C\CCCCCCCCC(CCCCCCC/C=C\CCCCCCCC)OC(=O)C(CO)NC(=O)C(N)CCCNC(=N)N (stereo not drawn) | Criterion met
15) CCCCCCCC/C=C\CCCCCCCCC(CCCCCCC/C=C\CCCCCCCC)OC(=O)C(CCC(=O)O)NC(=O)C(N)CCCNC(=N)N (stereo not drawn) | Criterion met
16) CCCCCCCC/C=C\CCCCCCCCC(CCCCCCC/C=C\CCCCCCCC)OC(=O)C(CC(=O)O)NC(=O)C(N)CCCNC(=N)N (stereo not drawn) | Criterion met
17) CCCCCCCC/C=C\CCCCCCCCC(CCCCCCC/C=C\CCCCCCCC)OC(=O)C(NC(=O)C(N)CCCNC(=N)N)C(C)O (stereo not drawn) | Criterion met
18) CCCCCCCC/C=C\CCCCCCCCC(CCCCCCC/C=C\CCCCCCCC)OC(=O)C(CCC(=O)O)NC(=O)C(N)CCCCN (stereo not drawn) | Criterion met
